Assay: Selectivity index, ratio of IC50 for human HT-29 cells to IC50 for Leishmania amazonensis amastigotes
Format: toxicity, cell-based
Conditions: HT-29 cells versus Leishmania amazonensis amastigotes, read-out: Ratio IC50
Known selectivity ratio of a selection of compounds
Write the value as a bare number.

Record excerpt, results attached:
{"columns": ["compound_string", "selectivity ratio"],
 "data": [
  ["COCC(=O)[C@H]1C(C)(C)CCC[C@]1(C)C1=C(O)C(=O)C(C(C)C)=CC1=O", 3.2],
  ["CC(C)c1cc2c(cc1O)[C@@]1(C)CCCC(C)(C)[C@@H]1CC2", 2.5],
  ["CC(C)c1cc2c(cc1O)[C@@]1(C)CCCC(C)(C)[C@@H]1[C@@H](O)C2=O", 2.1],
  ["CC(C)c1cc2c(c(O)c1O)[C@@]1(C)CCCC(C)(C)C1=C(O)C2=O", 1]
]}

Would you kindly look at the next entry?
Q) Answer with the recorded selectivity ratio for the compound listed here: `CC(C)C1=CC2=CC(=O)[C@H]3C(C)(C)CCC[C@]3(C)C2=C(O)C1=O`
A) 0.2

====

Tested on: Leishmania donovani
Test: Antileishmanial activity against Leishmania donovani LV82 promastigotes expressing red fluorescent protein after 72 hrs by flow cytometric analysis
Assay type: functional, organism-based
Details: LV82, 72 h
readout_label: IC50

Answered cases to consult:
{"columns": ["compound", "observed_measurement"],
 "data": [
  ["CC(C)c1cc2c(cc1O)[C@@]1(C)CCCC(C)(C)[C@@H]1[C@@H](O)C2=O", "24.6 µM"],
  ["CC(C)C1=CC2=CC(=O)[C@H]3C(C)(C)CCC[C@]3(C)C2=C(O)C1=O", "1.6 µM"],
  ["CO[C@@H]1C[C@H]2C(C)(C)CCC[C@]2(C)C2=C1C(=O)C(C(C)C)=C(O)C2=O", "> 10 µg/mL"],
  ["CC(C)c1cc2c(cc1O)[C@@]1(C)CCCC(C)(C)C1=C(O)C2=O", "> 10 µg/mL"]
]}

Q) # return recorded IC50 for input `Cc1ccc2c3c1CCCC(C)(C)[C@@]3(O)C(=O)C(C(C)C)=C2`
A) > 10 µg/mL

Q) Input `CC(C)C1=C(O)C(=O)C2=C(CC[C@H]3C(C)(C)CCC[C@]23C)C1=O` , output reported IC50.
A) > 10 µg/mL

Q) Assign IC50 to the following record: `CC(C)c1cc2c(c(O)c1O)[C@@]1(C)CCCC(C)(C)C1=C(O)C2=O`
A) > 60 µM

Q) Give me measured IC50, please, for this compound: `COCC(=O)[C@H]1C(C)(C)CCC[C@]1(C)C1=C(O)C(=O)C(C(C)C)=CC1=O`
A) 6.9 µM

Q) Consider the compound Cc1ccc2c3c1CCCC(C)(C)C3C(=O)C(C(C)C)=C2 (racemic) . State its measured IC50.
A) > 10 µg/mL

====

Tested on: Leishmania donovani
Assay: Antileishmanial activity against Leishmania donovani LV82 promastigotes expressing red fluorescent protein after 72 hrs by flow cytometric analysis
Format: functional, organism-based
Details: LV82, 72 h
Catalogue of IC50 values

{"columns": ["compound_string", "IC50"],
 "data": [
  ["Cc1ccc2cc(C(C)C)c(O)c3c2c1CCCC(C)(C)O3", "> 10 µg/mL"],
  ["CC(C)c1cc2c(cc1O)[C@@]1(C)CCCC(C)(C)[C@@H]1CC2=O", "> 10 µg/mL"],
  ["CC(C)C1=C(O)C(=O)C2=C(C1=O)[C@@H](O)C[C@H]1C(C)(C)CCC[C@]21C", "> 10 µg/mL"],
  ["CC(C)C1=C(O)C(=O)C2=C(C1=O)[C@H](O)C[C@H]1C(C)(C)CCC[C@]21C", "> 10 µg/mL"],
  ["CC(C)c1cc(C=O)c([C@@]2(C)CCCC(C)(C)[C@@H]2C=O)cc1O", "> 10 µg/mL"]
]}

Q) Read the entry `CC(C)c1cc2c(cc1O)[C@@]1(C)CCCC(C)(C)[C@@H]1CC2` and write its reported IC50.
A) 45.7 µM

====

Assay: Selectivity index, ratio of IC50 for human HT-29 cells to IC50 for Leishmania donovani LV82 promastigotes expressing red fluorescent protein
Assay type: toxicity, cell-based
Conditions: read-out: Ratio IC50
Quick list: selectivity ratio per entry.
Lab note: jot the number down without any unit.

Q) Input `COCC(=O)[C@H]1C(C)(C)CCC[C@]1(C)C1=C(O)C(=O)C(C(C)C)=CC1=O` , output reported selectivity ratio.
A) 0.6

Q) Answer with the recorded selectivity ratio of `CC(C)c1cc2c(cc1O)[C@@]1(C)CCCC(C)(C)[C@@H]1CC2` only.
A) 0.9

Q) Give the measured selectivity ratio for `CC(C)C1=CC2=CC(=O)[C@H]3C(C)(C)CCC[C@]3(C)C2=C(O)C1=O`
A) 1.6

Q) Output measured selectivity ratio for this item: `CC(C)c1cc2c(cc1O)[C@@]1(C)CCCC(C)(C)[C@@H]1[C@@H](O)C2=O`
A) 1.5
